Target: CaM (Bos taurus)
Construct: made in house; host or cells: E. coli BL21 (DE3)
Assay: Competition pull-down with native ligand TRPV1-Ct15
Assay type: binding, bovine
Conditions: H14 library; competitor peptide 200 µM; read-out: Surface mapping KD (apparent), competition
Metric name: pKd
Quick note: pKd means taking -log10 of the concentration in moles per liter.

A selection of reference data follows.
Compound | Reported
NCCCC[C@@H](CC(=O)N[C@H]1CCCC[C@@H]1C(=O)N[C@H]1CCCC[C@@H]1C(=O)N[C@@H](CC(=O)O)CC(=O)N[C@H]1CCCC[C@@H]1C(N)=O)NC(=O)[C@H]1CCCC[C@@H]1N [H14 KD] | 3.44
C[C@@H](O)[C@@H](CC(=O)N[C@H]1CCCC[C@@H]1C(=O)N[C@H]1CCCC[C@@H]1C(=O)N[C@H](CC(=O)N[C@H]1CCCC[C@@H]1C(N)=O)Cc1ccccc1)NC(=O)[C@H]1CCCC[C@@H]1N [H14 TF] | 4.03
C[C@@H](CC(=O)N[C@H]1CCCC[C@@H]1C(N)=O)NC(=O)[C@H]1CCCC[C@@H]1NC(=O)[C@H]1CCCC[C@@H]1NC(=O)C[C@H](Cc1c[nH]c2ccccc12)NC(=O)[C@H]1CCCC[C@@H]1N [H14 WA] | 3.51
N=C(N)NCCC[C@@H](CC(=O)N[C@H]1CCCC[C@@H]1C(N)=O)NC(=O)[C@H]1CCCC[C@@H]1NC(=O)[C@H]1CCCC[C@@H]1NC(=O)C[C@H](Cc1ccc(O)cc1)NC(=O)[C@H]1CCCC[C@@H]1N [H14 YR] | 3.93
CC[C@H](C)[C@@H](CC(=O)N[C@H]1CCCC[C@@H]1C(N)=O)NC(=O)[C@H]1CCCC[C@@H]1NC(=O)[C@H]1CCCC[C@@H]1NC(=O)C[C@H](Cc1ccc(O)cc1)NC(=O)[C@H]1CCCC[C@@H]1N [H14 YI] | 3.37
NC(=O)[C@H]1CCCC[C@@H]1NC(=O)C[C@H](Cc1ccccc1)NC(=O)[C@H]1CCCC[C@@H]1NC(=O)[C@H]1CCCC[C@@H]1NC(=O)C[C@H](Cc1ccc(O)cc1)NC(=O)[C@H]1CCCC[C@@H]1N [H14 YF] | 3.92
C[C@@H](CC(=O)N[C@H]1CCCC[C@@H]1C(N)=O)NC(=O)[C@H]1CCCC[C@@H]1NC(=O)[C@H]1CCCC[C@@H]1NC(=O)C[C@H](CC(N)=O)NC(=O)[C@H]1CCCC[C@@H]1N [H14 NA] | 3.40
C[C@@H](O)[C@@H](CC(=O)N[C@H]1CCCC[C@@H]1C(N)=O)NC(=O)[C@H]1CCCC[C@@H]1NC(=O)[C@H]1CCCC[C@@H]1NC(=O)C[C@H](CO)NC(=O)[C@H]1CCCC[C@@H]1N [H14 ST] | 3.51

INPUT: Using the record for NC(=O)[C@H]1CCCC[C@@H]1NC(=O)C[C@H](CO)NC(=O)[C@H]1CCCC[C@@H]1NC(=O)[C@H]1CCCC[C@@H]1NC(=O)C[C@H](Cc1c[nH]c2ccccc12)NC(=O)[C@H]1CCCC[C@@H]1N [H14 WS] , report its pKd.
OUTPUT: 3.51

INPUT: Using the record for CSCC[C@@H](CC(=O)N[C@H]1CCCC[C@@H]1C(N)=O)NC(=O)[C@H]1CCCC[C@@H]1NC(=O)[C@H]1CCCC[C@@H]1NC(=O)C[C@H](CC(=O)O)NC(=O)[C@H]1CCCC[C@@H]1N [H14 DM] , report its pKd.
OUTPUT: 3.49

INPUT: Using the record for NC(=O)[C@H]1CCCC[C@@H]1NC(=O)C[C@H](CO)NC(=O)[C@H]1CCCC[C@@H]1NC(=O)[C@H]1CCCC[C@@H]1NC(=O)C[C@H](CO)NC(=O)[C@H]1CCCC[C@@H]1N [H14 SS] , report its pKd.
OUTPUT: 3.63

INPUT: Using the record for N=C(N)NCCC[C@@H](CC(=O)N[C@H]1CCCC[C@@H]1C(N)=O)NC(=O)[C@H]1CCCC[C@@H]1NC(=O)[C@H]1CCCC[C@@H]1NC(=O)C[C@H](CCCCN)NC(=O)[C@H]1CCCC[C@@H]1N [H14 KR] , report its pKd.
OUTPUT: 3.60

INPUT: Using the record for C[C@@H](O)[C@@H](CC(=O)N[C@H]1CCCC[C@@H]1C(N)=O)NC(=O)[C@H]1CCCC[C@@H]1NC(=O)[C@H]1CCCC[C@@H]1NC(=O)C[C@H](CC(N)=O)NC(=O)[C@H]1CCCC[C@@H]1N [H14 NT] , report its pKd.
OUTPUT: 3.47

INPUT: Using the record for C[C@@H](O)[C@@H](CC(=O)N[C@H]1CCCC[C@@H]1C(=O)N[C@H]1CCCC[C@@H]1C(=O)N[C@@H](CC(=O)O)CC(=O)N[C@H]1CCCC[C@@H]1C(N)=O)NC(=O)[C@H]1CCCC[C@@H]1N [H14 TD] , report its pKd.
OUTPUT: 3.63

INPUT: Using the record for NCCCC[C@@H](CC(=O)N[C@H]1CCCC[C@@H]1C(=O)N[C@H]1CCCC[C@@H]1C(=O)N[C@H](CC(=O)N[C@H]1CCCC[C@@H]1C(N)=O)Cc1c[nH]c2ccccc12)NC(=O)[C@H]1CCCC[C@@H]1N [H14 KW] , report its pKd.
OUTPUT: 3.40
